The measured values listed here are drawn from patent US9771602B2.

- study-target: ethanologen yeast PNY 827
- assay-details: microbe, parasite or virus in culture
- Assay type: cell-based, Saccharomyces cerevisiae
- test-settings: read-out: KI (inhibitory constant on growth)
measure: Ki

**Q:** Give Ki (ethanologen yeast PNY 827) of the following molecule: `C[S+](C)[O-]`
**A:** ~16 mM

* * *

For each record, write down the corresponding pKi.
- study-target: ethanologen yeast PNY 827
- assay-details: microbe, parasite or virus in culture
- Assay type: cell-based, Saccharomyces cerevisiae
- test-settings: fit to squared inhibition kinetics; read-out: KI (inhibitory constant on growth)
Scale note: pKi = -log10(concentration in M).

**Q:** Query: pKi; subject: `O=C(O)c1cn[nH]c1`
**A:** 1.00

**Q:** Please give the measured pKi for this molecule: Cc1cn[nH]c1.Cl [4-methylpyrazole hydrochloride]
**A:** 1.39

**Q:** Any idea what its pKi is? The molecule is O=C/C=C/c1ccccc1 [cinnamaldehyde, trans-cinnamaldehyde]
**A:** 3.60
